Data credit: PubChem BioAssay (NCI)

Tested on: CAKI-1 renal
Assay: NCI tumour cell line growth inhibition, 48 h
log10 TGI listing for selected compounds.
Scale: decimal log of TGI, TGI in µM.

Task: // Input: NCCSC(C[N+](=O)[O-])c1ccccc1Cl (configuration not stated) . Output its log10 TGI only.
Output: 1.39

Task: // Input: `CN(CCCN(C)CCC1CCCCC1)CCC1CCCCC1` . Output its log10 TGI only.
Output: 0.58

Task: // Input: CC/C=C/C(/C=C/C[C@]1(CC)C[C@H](CC)[C@H](CC(=O)O)OO1)CC (some centres not stated) . Output its log10 TGI only.
Output: 0.68

Task: // Input: `CCC(=O)c1c(C(F)(F)F)n([O-])c2ccccc2[n+]1=O` . Output its log10 TGI only.
Output: 0.78

Task: // Input: `CC(=O)n1c(-c2ccc(Cl)c(Cl)c2)cn(-c2ccc(Cl)cc2)c1=O` . Output its log10 TGI only.
Output: 1.64

Further cases:
Task: // Input: `O=C1COCCN1c1ccc(NCc2cn(C(=O)c3ccc(Cl)cc3)c3ccccc23)cc1` . Output its log10 TGI only.
Output: 0.26

Task: // Input: CC1(C)CC2(C)ON=C(c3ccccc3)N2c2ccccc2N1 (configuration not stated) . Output its log10 TGI only.
Output: 1.78

Task: // Input: `C=C(CC)C[C@@H]1C[C@]2(C(=O)OC)c3[nH]c4ccccc4c3CCN2C1=O` . Output its log10 TGI only.
Output: 1.69

* * *

Each entry below carries its measured GI50, system: SR leukemia.

Solved cases below.
Task: Enter recorded GI50 with SR leukemia for `Cc1cc(Cl)ccc1Nc1nc(C(F)(F)F)ccc1C(=O)Nc1cccc(C(F)(F)F)c1` here.
Output: 2560 nM

Task: Enter recorded GI50 with SR leukemia for `COC(=O)Nc1nc2ccc(S(=O)(=O)c3ccc(NC(=O)Nc4cc(C(F)(F)F)ccc4F)cc3)cc2[nH]1` here.
Output: > 25000 nM

Task: Enter recorded GI50 with SR leukemia for `CNc1ncc2cc(Oc3ccc(F)cc3F)c(=O)n(C)c2n1` here.
Output: > 25000 nM

Further cases:
Task: Enter recorded GI50 with SR leukemia for `O=c1[nH]nc(-c2ccccc2)c2c(-c3ccccc3)onc12` here.
Output: 288 nM

Task: Enter recorded GI50 with SR leukemia for `Oc1ccc(O)c2c1C1(Cl)C(Cl)=C(Cl)C2(Cl)C1(Cl)Cl` here.
Output: 2650 nM

Task: Enter recorded GI50 with SR leukemia for `Cc1c(C(N)=O)sc2c1c(=O)n(Cc1ccccc1)c1nnc(S(=O)(=O)CC(=O)Nc3ccc(Cl)cc3)n21` here.
Output: 6710 nM

* * *

TGI listing for selected molecules.
Tested on: SK-MEL-5 melanoma
Assay: NCI tumour cell line growth inhibition, 48 h

Task: // Input: `O=C1c2ccn(CCCCN(CCO)CCO)c2C(=O)c2c1c(O)c1ccccc1c2O` . Output its TGI only.
Output: 78.9 µM

Task: // Input: `Cc1ccc(-c2c3c(N)c4c(nc3nc3c2c(C)nn3-c2ccccc2)CCC4)cc1` . Output its TGI only.
Output: 3.31 µM

Task: // Input: `COc1ccc2c(c1OC)C(=O)O[C@@H]2[C@H]1c2c(c(Br)c3c(c2OC)OCO3)CCN1C` . Output its TGI only.
Output: > 100 µM

Task: // Input: `COc1cc2c(cc1OCCCCCn1c3ccccc3c3ccccc31)N=C[C@@H]1CCCN1C2=O` . Output its TGI only.
Output: 3.15 µM

Moving on to the next molecule.
Task: // Input: `Oc1ccccc1-n1nc2ccc3nonc3c2n1` . Output its TGI only.
Output: > 100 µM

* * *

Test system: BT-549 breast
Experiment: NCI tumour cell line growth inhibition, 48 h
measure_name: GI50

Task: // Input: `O=c1[nH]nc(-c2ccccc2)c2c(-c3ccccc3)onc12` . Output its GI50 only.
Output: 0.506 µM

Task: // Input: `O=C(Cn1c2ccccc2c2ccncc21)N/N=C\c1ccc2ccccc2c1` . Output its GI50 only.
Output: 15.6 µM

Task: // Input: `C=C1C(=O)O[C@H]2[C@H]1CC/C(CNC(=O)/C=C/c1ccc(Cl)cc1Cl)=C\CC[C@@]1(C)O[C@@H]21` . Output its GI50 only.
Output: 0.975 µM

Task: // Input: CCCC(CCC)C(=O)OCC1(CO)C/C(=C\c2ccc(C(F)(F)F)cc2)C(=O)O1 (stereo not given) . Output its GI50 only.
Output: 7.04 µM

Further cases:
Task: // Input: `Nc1ccccc1C#C/C=C\C#Cc1ccccc1F` . Output its GI50 only.
Output: 4.06 µM

* * *

TGI listing for selected compounds.
Test system: A549 NSCLC
Assay: NCI tumour cell line growth inhibition, 48 h

Solved cases below.
Task: // Input: `COc1ccc(/C=C(\Cl)c2ccc(OC)cc2)cc1` . Output its TGI only.
Output: > 100 µM

Task: // Input: `NC(=O)N/N=C(\CCC(=O)N(Cc1ccccc1)Cc1ccccc1)CC(=O)c1ccc(F)cc1` . Output its TGI only.
Output: > 100 µM

Task: // Input: Cn1ncnc1C1c2n[nH]c(=O)c3cc(F)cc(c23)NC1c1ccc(F)cc1 (stereo unspecified) . Output its TGI only.
Output: > 100 µM

Task: // Input: `Oc1ccc(Cn2c(-c3ccc(O)cc3)nc3ccccc32)cc1` . Output its TGI only.
Output: > 100 µM

Task: // Input: COc1ccc(N2C(=O)C3c4[nH]c5ccc(OCc6ccccc6)cc5c4C4CCC(C(C)C)CC4C3C2=O)cc1 (stereo unspecified) . Output its TGI only.
Output: > 100 µM

Further cases:
Task: // Input: O=CN1N=C(c2ccc(Nc3ccnc4cc(Cl)ccc34)cc2)CC1c1ccc(Cl)cc1 (stereo unspecified) . Output its TGI only.
Output: > 100 µM

Task: // Input: `O=C1c2ccn(CCCCN(CCO)CCO)c2C(=O)c2c1c(O)c1ccccc1c2O` . Output its TGI only.
Output: 7.33 µM

Task: // Input: `COc1cccc(C(=O)N[C@@H]2[C@H](O)[C@@H](CO)O[C@H]2n2cnc3c(N)ncnc32)c1` . Output its TGI only.
Output: > 100 µM

Task: // Input: O=C1c2c(ccc3c2CCCC3)CC1Cc1ccc2c(c1)CCCC2 (stereo unspecified) . Output its TGI only.
Output: > 100 µM

Task: // Input: `c1ccc(/C(=N\Nc2ccc3ccccc3n2)c2ccccn2)cc1` . Output its TGI only.
Output: > 36.2 µM

Task: // Input: CCCCN(CCCC)CCC(O)c1cc2ccc(C(F)(F)F)cc2c2cc(C(F)(F)F)ccc12 (stereo unspecified) . Output its TGI only.
Output: 12.1 µM

Task: // Input: `COC(=O)C1=NN2c3ccccc3CN([C@@H](C)c3ccccc3)C(=O)[C@H]2[C@@H]1C` . Output its TGI only.
Output: > 100 µM

Task: // Input: `Nc1nc(NCCOCP(=O)(O)O)c(N)c(=O)[nH]1` . Output its TGI only.
Output: > 100 µM

* * *

System: CAKI-1 renal
Assay: NCI tumour cell line growth inhibition, 48 h
TGI listing for selected compounds.
The reply should contain only the number, in µM.

Task: // Input: CCCC(CCC)C(=O)OCC1(CO)C/C(=C\c2ccc(C(F)(F)F)cc2)C(=O)O1 (stereo not given) . Output its TGI only.
Output: 21.2

Task: // Input: `Cc1cc(Cl)ccc1Nc1nc(C(F)(F)F)ccc1C(=O)Nc1cccc(C(F)(F)F)c1` . Output its TGI only.
Output: 17.8

Moving on to the next compound.
Task: // Input: `O=C1c2ccccc2C(=O)c2c(O)c(NCCNCCO)cc(O)c21` . Output its TGI only.
Output: 14.2

* * *

Tested on: SF-539 CNS
Assay: NCI tumour cell line growth inhibition, 48 h; in the data active = GI50 below about 0.43 µM; inactive = the rest
Assign a class; possible classes are 1 = active, -1 = inactive

Some solved cases for reference:
Task: Please share the test call associated with `C=C1C(=O)O[C@H]2[C@H]1CC/C(CNC(=O)/C=C/c1ccc(Cl)cc1Cl)=C\CC[C@@]1(C)O[C@@H]21` .
Output: -1

Task: Please share the test call associated with `O=C(Cn1c2ccccc2c2ccncc21)N/N=C\c1ccc2ccccc2c1` .
Output: -1

Task: Please share the test call associated with `CCC(=O)c1c(C(F)(F)F)n([O-])c2ccccc2[n+]1=O` .
Output: -1

Task: Please share the test call associated with `O=C(CN1C(=O)S/C(=C\C(Cl)=C\c2ccccc2)C1=O)NCCCn1ccnc1` .
Output: -1

Next item in the queue.
Task: Please share the test call associated with `COc1ccc2c(c1)C=C1CSCC3=Cc4cc(OC)ccc4OC13O2` .
Output: 1

* * *

GI50 listing for selected compounds.
System: HOP-62 NSCLC
Assay: NCI tumour cell line growth inhibition, 48 h

Solved cases below.
Task: // Input: `COc1ccc2c(c1OC)C(=O)O[C@@H]2[C@H]1c2c(c(Br)c3c(c2OC)OCO3)CCN1C` . Output its GI50 only.
Output: 6.47 µM

Task: // Input: `CNC(=O)c1cncc(/C=C/c2c(Cl)cccc2Cl)c1` . Output its GI50 only.
Output: > 25 µM

Task: // Input: O=CN1N=C(c2ccc(Nc3ccnc4cc(Cl)ccc34)cc2)CC1c1ccc(Cl)cc1 (stereo not given) . Output its GI50 only.
Output: 0.859 µM

Task: // Input: `Cc1ccc(-c2c3c(N)c4c(nc3nc3c2c(C)nn3-c2ccccc2)CCC4)cc1` . Output its GI50 only.
Output: 2.7 µM

Task: // Input: `COc1ccc(CN=C(N)N=C(N)N)cc1OC` . Output its GI50 only.
Output: 602 µM

Moving on to the next compound.
Task: // Input: `CC(=O)n1c(-c2ccc(Cl)c(Cl)c2)cn(-c2ccc(Cl)cc2)c1=O` . Output its GI50 only.
Output: 20.4 µM
